This collection of values is drawn from PubChem BioAssay.

Test: stimulators of nuclear beta-catenin in C2C12, primary screen, imaging, WNT3A-conditioned medium, mouse C2C12, NPC library (AID 1117326); also: reference of the scale not given here
Conditions: stimulation, at 2 µM, stronger effect = higher value
Exercise: for every item that follows, state its recorded nuclear beta-catenin stimulation.
Numbers only, in %.

molecule: O=c1n(CCCN2CCN(c3cccc(Cl)c3)CC2)nc2ccccn12
nuclear beta-catenin stimulation / %: 0.2

Give nuclear beta-catenin stimulation for all molecules that follow.
1. CCC(=O)O[C@]1(C(=O)CCl)[C@@H](C)C[C@H]2[C@@H]3CCC4=CC(=O)C=C[C@]4(C)[C@@]3(F)[C@@H](O)C[C@@]21C
2. CNC(=O)c1cnn(-c2nc(N)c3ncn([C@@H]4O[C@H](CO)[C@@H](O)[C@H]4O)c3n2)c1
3. O=C(O)Cn1c(=O)n(Cc2ccc(Br)cc2F)c(=O)c2ccc(Cl)cc21
4. NS(=O)(=O)c1cc2c(cc1C(F)(F)F)NCNS2(=O)=O
5. Cc1c(C)c2c(c(C)c1OC(=O)c1cccnc1)CC[C@@](C)(CCC[C@H](C)CCC[C@H](C)CCCC(C)C)O2

3.8
4.8
-0.9
1
-0.2

Give nuclear beta-catenin stimulation for all molecules that follow.
1. CCN(CC)CCOc1ccccc1C(=O)CCc1ccccc1
2. C=C(C)C(=O)OCC(O)CO (stereo not drawn)
3. CCCCN1CCCC[C@H]1C(=O)Nc1c(C)cccc1C
4. Cc1ccc(Cl)c(Nc2ccccc2C(=O)O)c1Cl
5. CC(C)[N+](C)(CCOC(=O)C1c2ccccc2Oc2ccccc21)C(C)C
6. CCCC(=O)OC[C@@H](OC(=O)CCC)[C@@H](OC(=O)CCC)[C@H](Cn1c2nc(=O)[nH]c(=O)c-2nc2cc(C)c(C)cc21)OC(=O)CCC
7. CCN(CC)CC(=O)OCC(=O)[C@@]1(O)CC[C@H]2[C@@H]3CCC4=CC(=O)CC[C@]4(C)[C@H]3[C@@H](O)C[C@@]21C
8. CSCC[C@H](N)C(=O)O

-1.7
28.1
0.4
1.2
3.3
2.2
-0.8
1.3

Give nuclear beta-catenin stimulation for all molecules that follow.
1. COc1ccnc2c1CCCCC2S(=O)c1nc2ccccc2[nH]1 (stereo not drawn)
2. CN(C)CCN(Cc1ccccc1)c1ccccn1

3
0.8
